target: bPepT1 (Bos taurus); assay: Inhibition of [3H]-Gly-Sar uptake in bPepT1-transfected CHO cells; conditions: 0.02 mmol/L [3H]-Gly-Sar (3.7 × 10^4 Bq/mL), unlabeled peptide 0.001–10 mmol/L, pH 6.0, 5 min, liquid scintillation counting, n = 4 (Fig. 6), CBD = cannot be determined, read-out: IC50 (inhibition of [3H]-Gly-Sar uptake), Bovine
Sequence (A5D7E5 1-707): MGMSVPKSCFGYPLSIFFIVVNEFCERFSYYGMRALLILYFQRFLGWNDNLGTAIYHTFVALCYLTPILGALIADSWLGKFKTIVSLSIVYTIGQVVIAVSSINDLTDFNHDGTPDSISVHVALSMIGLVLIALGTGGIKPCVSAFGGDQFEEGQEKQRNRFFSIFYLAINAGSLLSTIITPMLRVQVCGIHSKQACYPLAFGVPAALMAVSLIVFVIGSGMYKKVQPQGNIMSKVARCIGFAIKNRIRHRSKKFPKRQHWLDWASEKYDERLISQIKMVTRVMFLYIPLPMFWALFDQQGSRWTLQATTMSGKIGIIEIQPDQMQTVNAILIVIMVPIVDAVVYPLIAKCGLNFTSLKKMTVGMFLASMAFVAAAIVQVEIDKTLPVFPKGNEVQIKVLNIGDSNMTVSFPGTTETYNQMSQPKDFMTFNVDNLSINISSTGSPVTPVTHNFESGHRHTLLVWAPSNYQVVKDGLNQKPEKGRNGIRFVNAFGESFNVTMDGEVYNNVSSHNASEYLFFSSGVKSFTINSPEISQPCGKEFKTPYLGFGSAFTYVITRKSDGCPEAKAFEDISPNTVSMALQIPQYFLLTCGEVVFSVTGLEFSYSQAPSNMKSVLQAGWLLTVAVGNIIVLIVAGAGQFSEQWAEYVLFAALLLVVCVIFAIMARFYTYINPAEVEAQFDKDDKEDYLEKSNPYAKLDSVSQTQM
pIC50: −log10 of the molar value. Peptide text beside a SMILES is read from it.
measured_property: pIC50

Answered examples (3):
- compound: "NCCCC[C@H](NC(=O)CN)C(=O)O [Gly-Lys] (H-Gly-Lys-OH)"
  measured_on: "bPepT1 (Bos taurus)"
  measured_property: "pIC50"
  experimental_result: 4.11
- compound: "CSCC[C@H](NC(=O)[C@@H](N)CCSC)C(=O)O [Met-Met] (H-Met-Met-OH)"
  measured_on: "bPepT1 (Bos taurus)"
  measured_property: "pIC50"
  experimental_result: 4.02
- compound: "CSCC[C@H](NC(=O)[C@@H](N)CCCCN)C(=O)O"
  measured_on: "bPepT1 (Bos taurus)"
  measured_property: "pIC50"
  experimental_result: 4.49

(1) CSCC[C@H](N)C(=O)NCC(=O)O [Met-Gly] (H-Met-Gly-OH)
(2) N[C@@H](Cc1c[nH]c2ccccc12)C(=O)N[C@@H](Cc1ccccc1)C(=O)O [Trp-Phe] (H-Trp-Phe-OH)
q: pIC50 comparison. Which is larger, 1 or 2 ? Label of pick, please.
a: 2

(a) CSCC[C@H](N)C(=O)N[C@@H](CCCCN)C(=O)O [Met-Lys] (H-Met-Lys-OH)
(b) CSCC[C@H](NC(=O)CN)C(=O)O
q: Higher pIC50 between a and b ? Lab note: record the label of whichever item you select.
a: a

// data source = paper PMC5778758
